- Protocol Text: Elimination half life in Harlan Sprague-Dawley rat at 1.5 mg/kg, po
- Assay type: ADME, organism-based
- Parameters: dose 1.5 mg/kg, route oral
- Assay Setup: in vivo, read-out: beta t1/2 (converted)
Quantity: half-life (h)
Numbers only, in h.

So what does the record say about half-life for `CC(C)c1cccc(-c2c(-c3ccc4nn(C)cc4c3)nsc2NC(=O)[C@@H]2C[C@H]2C)n1.Cl` ?
4.6

###

- Protocol Text: Clearance in Harlan Sprague-Dawley rat at 1.5 mg/kg, po and 1 mg/kg, iv
- Assay type: ADME, organism-based
- Assay Setup: in vivo
Quantity: clearance (mL/min/kg)
One number for each entry, in mL/min/kg.

Given the entry `CC(C)c1cccc(-c2c(-c3ccc4nn(C)cc4c3)nsc2NC(=O)[C@@H]2C[C@H]2C)n1.Cl` , report its measured clearance.
8.4
